Protocol conditions: buffer; pH 7.4; 200.0 µM
Metric name: solubility kinetic (µg/mL)
Form entry: value (µg/mL) — number only.

>>> result("CSCCC(=O)N1CCCC(CO)(CCCc2ccccc2)C1 (configuration not stated)")
31.7
>>> result("CCCOc1cc(C)c(S(=O)(=O)NCc2cccs2)cc1C")
9.1
>>> result("CC1CCN(C2=NC(=O)/C(=C/c3ccccc3F)S2)CC1")
14.3
>>> result("Nc1ccc(C(=O)NCC2(c3ccccc3)CCCC2)cc1")
17.8
>>> result("CN1CC(C(=O)c2ccc(Cl)cc2)C(c2ccccc2)C1 (configuration not stated)")
40.1

// returns reported solubility kinetic for input CC(NC(=O)CN1CCN(c2cccc(Cl)c2)CC1)c1ccccc1 (configuration not stated)
42.4

Entry CC(CCc1ccccc1)NC(=O)CN1CCSc2ccccc21 (configuration not stated) has what solubility kinetic?
20.1
